Data provenance is the supplement of paper PMC10338343.

test system: MIWI (PIWIL1) piRISC loaded with piRNA #2 (30 nt); assay: pre-steady-state target cleavage rate (min^-1); MIWI and MILI are mouse PIWI proteins and EfPiwi is from a freshwater sponge; tags in brackets are library labels; higher = faster piRNA-guided slicing of the target; conditions: guide: piRNA #2 5'p-UUAGGUAACCCAGUAGAUCCAGAGGAAUUC; auxiliary factor: 500 nM mouse GTSF1;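 note: 1 nM active piRISC with 0.1 nM target library at 33 °C single turnover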
In all, about 5,500 sequences were measured (“pre-steady-state target cleavage rate”: median about 0.1, highest 2% from about 0.64 on). What follows is part of a selection rich in the highest values, with near analogues and random picks from the rest.
Value Kind: pre-steady-state target cleavage rate
Note: the reply should be a number with no unit written.

Looking up `CAAUUCCUCUGGAUCUACUGGGUUACAUAA` , I see its pre-steady-state target cleavage rate listed as 0.739

Looking up `CAAUUCCACUGGAUCUACUGGGUUACGUAA` , I see its pre-steady-state target cleavage rate listed as 0.419

Looking up `GAAUUCCUCUCGAUCUACUGCGUUACCUAA` , I see its pre-steady-state target cleavage rate listed as 0.691

Looking up `GAAUUCCACUGGAUCUACUGGGUUACGUAA` , I see its pre-steady-state target cleavage rate listed as 0.803

Looking up `CUUUUCCUCUGGAUCAACUGGGUUUCCUAA` , I see its pre-steady-state target cleavage rate listed as 0.165

Looking up `CAAUUCCUCUGGAUUUACUGGGUUACCUAA` , I see its pre-steady-state target cleavage rate listed as 0.681
